Tested on: OVCAR-4 ovarian
Test: NCI tumour cell line growth inhibition, 48 h
Overview of reported TGI across a group of compounds:
VALUE KIND: TGI

• C[C@]12CC[C@@H]3c4ccc(O)cc4CC[C@H]3[C@@H]1CC[C@@H]2OC(=O)CCc1ccccc1 = 39.1 µM
• COC(=O)[C@H]1COC(=O)N1 = > 100 µM
• Oc1c(Cl)cc(Cl)cc1C(c1cc(Cl)cc(Cl)c1O)C(Cl)(Cl)Cl = 19 µM
• CCOC(OCC)N1C(=O)C2(C(OCC)OCC)CC3C(OC(=O)N3N)c3cccc1c32 (stereo not drawn) = > 100 µM
• C/C(O)=C(\C#N)C(=O)Nc1ccc(C(F)(F)F)cc1 = > 100 µM
• COC(=O)C(COC(=O)/C=C/c1ccc(OC(C)=O)c(OC(C)=O)c1)NC(=O)/C=C/c1ccc(OC(C)=O)c(OC(C)=O)c1 (stereo not drawn) = 62.8 µM
• Nc1n[n+](-c2ccccc2)no1 = > 100 µM
• CC(C)(C)c1ccc(OCCOCCOc2ccc(C(C)(C)C)cc2S(=O)(=O)Nc2ccc([N+](=O)[O-])cc2)c(S(=O)(=O)Nc2ccc([N+](=O)[O-])cc2)c1 = > 100 µM
• O=C1/C(=C/c2ccc(Cl)cc2)CCC/C1=C\c1ccc(Cl)cc1 = > 100 µM
• Cc1ccc(C(=O)/C(=C\c2ccc([N+](=O)[O-])cc2)S(=O)Cc2ccc(Cl)cc2)cc1 (stereo not drawn) = 3.85 µM
• COC(=O)C(C(=O)C(=O)Nc1cccc([N+](=O)[O-])c1)c1nc2ccc([N+](=O)[O-])cc2[nH]c1=O (stereo not drawn) = > 100 µM
• Oc1c(Br)cc(/C=C/c2cccc(/C=C/c3cc(Br)c(O)c(Br)c3)n2)cc1Br = 35.7 µM
• C/C(=N\NC(=S)SCc1ccccc1)c1ccccn1 = 1.52 µM
• Cc1cn2c(/C=N/N=C(N)N)c(-c3ccccn3)nc2s1 = 40.1 µM
• COc1ccc2c(c1)C(=O)/C(=C/c1ccc([N+](=O)[O-])o1)O2 = 2.06 µM
• COc1ccc(NC(=O)C(C)Oc2ccc(OCC3CCCCC3)cc2)cc1 (stereo not drawn) = > 100 µM
• Cc1cccc2c1CCC21OC(=O)c2c1ccc1ccccc21 (stereo not drawn) = > 100 µM
• CN1CCN(c2ccc(NC(=O)c3cncnc3Nc3ccc(OCc4ccccn4)c(Cl)c3)cc2)CC1 = 12.4 µM
• CC(C)C[C@H](NC(=O)[C@H](Cc1ccc(F)cc1)NC(=O)c1ccccn1)B(O)O = < 0.0326 µM
• CC1=C(/C=C/C(C)=C/C=C/C(C)=C/C(=O)O)C(C)(C)CCC1 = > 100 µM
• O=c1[nH]nc(-c2ccccc2)n1/N=C/c1ccccc1Cl = > 100 µM
• CC(=O)O[C@@]12CO[C@@H]1C[C@@H](O)[C@@]1(C)C(=O)[C@H](O)C3=C(C)[C@@H](OC(=O)[C@H](O)[C@@H](NC(=O)c4ccccc4)c4ccccc4)C[C@@](O)([C@@H](OC(=O)c4ccccc4)C12)C3(C)C (stereo partly drawn) = > 100 µM
• CN1C(=O)C(O)CC1c1ccccc1C(F)(F)F (stereo not drawn) = > 100 µM
• CC1(N)CCN(c2cnc(-c3cccc(Cl)c3Cl)c(N)n2)CC1 = > 100 µM
• CCC(=O)Nc1ccc(C)c(-c2ccc(C(=O)NCC3CC3)cc2)c1 = > 25 µM
• CC(=O)c1c(CO[N+](=O)[O-])n([O-])c2ccccc2[n+]1=O = > 100 µM
• O=C(CC(=O)c1cccc2ccccc12)C(=O)NC1C2CC3CC(C2)CC1C3 (stereo not drawn) = > 100 µM
• CCCCCCCCCCCCCCCCCCOCC(CCP(=O)(CP(=O)(O)O)Oc1ccccc1)OCCCCCCCCCCCCCCCCCC (stereo not drawn) = > 100 µM

Ref: PubChem BioAssay (NCI)
